Reference for the values: ChEMBL document CHEMBL1649565

System: Fusobacterium sp.
Assay: Antibacterial activity against Fusobacterium sp. assessed as percent susceptible isolates by CLSI M11-A7 method
Format: functional
Activity calls are given as the source filed them. The rule behind the calls is not given here.
observable: Activity

molecule="CCC[C@@H]1C[C@@H](C(=O)N[C@@H]([C@H]2O[C@H](SC)[C@H](O)[C@@H](O)[C@H]2O)[C@H](C)Cl)N(C)C1 [CLINDAMYCIN]" reportedvalue=95.2%
molecule="N[C@@H]1CCCCN(c2c(F)cc3c(=O)c(C(=O)O)cn(C4CC4)c3c2Cl)C1 [BESIFLOXACIN]" reportedvalue=inactive
molecule="Cc1ncc([N+](=O)[O-])n1CCO [METRONIDAZOLE]" reportedvalue=100%
molecule="COc1c(N2CCNC(C)C2)c(F)cc2c(=O)c(C(=O)O)cn(C3CC3)c12 (centres undefined) [GATIFLOXACIN]" reportedvalue=inactive
